- test_system: GDP-bound KRAS wild-type protein (Homo sapiens, UniProt P01116)
- Sequence (P01116 1-188 isoform P01116-2): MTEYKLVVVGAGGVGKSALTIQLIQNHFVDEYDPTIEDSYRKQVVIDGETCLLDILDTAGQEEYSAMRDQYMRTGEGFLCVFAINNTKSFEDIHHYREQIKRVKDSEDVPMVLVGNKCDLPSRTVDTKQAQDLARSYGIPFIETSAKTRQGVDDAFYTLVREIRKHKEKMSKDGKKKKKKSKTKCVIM
- experiment_summary: Binding to KRAS by surface plasmon resonance (SPR), dissociation constant KD
- conditions: 1:1 binding model
Listed here: items and their measured Kd.
Give the value, in units of nM, as a plain number.

molecule_smiles | Kd, nM
CCCOC[C@H]1C(=O)N[C@@H]([C@@H](C)CC)C(=O)N(C)CC(=O)N(C)[C@H]2C/C=C\CCN(C2=O)[C@@H](CC2CCC(F)(F)CC2)C(=O)N(C)CC(=O)N[C@@H](CCc2ccc(C(F)(F)F)c(Cl)c2)C(=O)N2C[C@H](OCC)C[C@H]2C(=O)NC2(CC(C)(C)C2)C(=O)N(C)[C@@H](C(CC)CC)C(=O)N(C)[C@H](C(=O)N(C)C)CC(=O)N1C | 1

Ask | Query: Kd; subject: `CCC[C@H]1C(=O)N[C@@H](C2CCCC2)C(=O)N(C)CC(=O)N(C)[C@H]2C/C=C\CCN(C2=O)[C@@H](Cc2ccc(C)cc2)C(=O)N(C)CC(=O)N[C@@H](CCc2ccc(C(F)(F)F)c(OC)c2)C(=O)N2CC3(CC3)C[C@H]2C(=O)NC2(CC(C)(C)C2)C(=O)N(C)[C@@H](CC(C)(C)C)C(=O)N(C)[C@H](C(=O)N(C)C)CC(=O)N1C`
Reply | 0.41
